- Test system: LCLC-103H
- test_summary: relative viability (nuclei count vs DMSO), 5 days (fraction); higher = more cells survive
- applied_conditions: first compound 2.53 µM
quantity: relative viability
Note: the reply should be a number with no unit written.

[Q] Answer with the recorded relative viability of Cc1cnc(-c2cnc(NCCNc3ccc(C#N)cn3)nc2-c2ccc(Cl)cc2Cl)[nH]1 + CC(C)C[C@H](NC(=O)[C@H](Cc1ccccc1)NC(=O)c1cnccn1)B(O)O [Bortezomib] (partner 0.002 µM) only.
[A] 0.912

[Q] Identify relative viability associated with the compound Cc1cnc(-c2cnc(NCCNc3ccc(C#N)cn3)nc2-c2ccc(Cl)cc2Cl)[nH]1 + CC(=O)c1c(C)c2cnc(Nc3ccc(N4CCNCC4)cn3)nc2n(C2CCCC2)c1=O [Palbociclib] (partner 0.5 µM)
[A] 0.507

[Q] Using known records, supply relative viability for Cc1cnc(-c2cnc(NCCNc3ccc(C#N)cn3)nc2-c2ccc(Cl)cc2Cl)[nH]1 + Nc1nc2[nH]cc(CCc3ccc(C(=O)N[C@@H](CCC(=O)O)C(=O)O)cc3)c2c(=O)[nH]1 [Pemetrexed] (partner 0.2 µM)
[A] 0.418
